Measured target: PRMT5/MEP50 (Homo sapiens, UniProt O14744)
Sequence (O14744 whole entry): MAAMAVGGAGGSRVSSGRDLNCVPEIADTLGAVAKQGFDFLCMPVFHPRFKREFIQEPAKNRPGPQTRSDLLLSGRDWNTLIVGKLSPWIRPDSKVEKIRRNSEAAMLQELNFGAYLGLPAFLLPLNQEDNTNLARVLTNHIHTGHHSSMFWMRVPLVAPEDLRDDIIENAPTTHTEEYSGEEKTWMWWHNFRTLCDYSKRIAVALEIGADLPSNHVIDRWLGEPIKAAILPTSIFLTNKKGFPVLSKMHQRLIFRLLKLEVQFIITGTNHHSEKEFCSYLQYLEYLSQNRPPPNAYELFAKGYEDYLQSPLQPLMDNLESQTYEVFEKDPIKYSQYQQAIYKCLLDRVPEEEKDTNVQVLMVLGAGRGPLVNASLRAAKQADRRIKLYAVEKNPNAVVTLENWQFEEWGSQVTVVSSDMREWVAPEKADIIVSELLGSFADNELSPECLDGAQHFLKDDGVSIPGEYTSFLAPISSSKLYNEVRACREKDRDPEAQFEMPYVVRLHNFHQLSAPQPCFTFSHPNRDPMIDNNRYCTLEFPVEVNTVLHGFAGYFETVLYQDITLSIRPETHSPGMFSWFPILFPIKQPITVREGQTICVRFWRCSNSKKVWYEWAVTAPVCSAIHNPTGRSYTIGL
Sequence (Q9BQA1 whole entry partner): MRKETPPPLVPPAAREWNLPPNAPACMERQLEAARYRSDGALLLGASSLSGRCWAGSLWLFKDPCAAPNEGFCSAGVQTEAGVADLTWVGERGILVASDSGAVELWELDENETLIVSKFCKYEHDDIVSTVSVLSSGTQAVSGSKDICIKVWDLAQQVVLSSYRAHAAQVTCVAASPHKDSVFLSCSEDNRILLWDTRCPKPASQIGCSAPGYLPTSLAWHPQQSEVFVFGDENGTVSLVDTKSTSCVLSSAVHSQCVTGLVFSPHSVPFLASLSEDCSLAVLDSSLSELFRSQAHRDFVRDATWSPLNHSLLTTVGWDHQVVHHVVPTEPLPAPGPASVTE
Procedure summary: MTase-Glo methyl transferase assay, Method A (Histone H4 peptide, 1 µM MTA, 24 h pre-incubation)
Type: biochemical
Set-up: made in house
Cond: read-out: PRMT5 MTase Glo Ki (nM, Meth. A)
Parameter: Ki (nM)

I: Cc1cc2cc(C(=O)N(Cc3ccc(N4CCOCC4)nn3)[C@H](C)c3ncccn3)ccc2nc1N
II: Cc1cc2cc(C(=O)N(Cc3ccc(C(F)(F)F)cn3)Cc3ncccc3F)cnc2nc1N
For the pair I and II , which entry has the numerically smaller recorded Ki? Output the label that corresponds to your choice.
I
(I: 0.07 nM, II: 0.51 nM)

====

Measured target: PRMT5/MEP50 (Homo sapiens, UniProt O14744)
Procedure summary: MTase-Glo methyl transferase assay, Method A (Histone H4 peptide, 1 µM MTA, 24 h pre-incubation)
Format: biochemical
Set-up: made in house
Cond: read-out: PRMT5 MTase Glo Ki (nM, Meth. A)
Experimental: Method A: The PRMT5 inhibitory activity of test compounds was determined using the MTase-Glo™ assay (Promega), which monitors the product (S-adenosyl homocysteine or SAH) of methyltransferase reactions. The PRMT5 MTase-Glo assay was conducted in a 384-well white ProxiPlate (PerkinElmer) in a total volume of 12 µL. […] The light signal corresponding to the amount of SAH produced by the PRMT5 reaction was subsequently measured using an Envision multimode reader (PerkinElmer). […]
Parameter: Ki (nM)

substance_smiles=Cc1cc2cc(C(=O)N(Cc3ccc(C(F)(F)F)cn3)Cc3cnccn3)ccc2nc1N measured_target="PRMT5/MEP50 (Homo sapiens, UniProt O14744)" parameter=Ki quantitative_readout=0.47

a: Cc1cc2cc(C(=O)N(Cc3ccc(C#N)cn3)[C@@H]3CCC[C@H]3O)ccc2nc1N
b: COc1ccc(CN(C(=O)c2ccc3nc(N)c(Br)cc3c2)[C@H](C)c2ncccn2)nn1
c: Cc1cc2cc(C(=O)N(Cc3ccc(N(C)C)nn3)[C@H](C)c3ncccn3)ccc2nc1N
Order by Ki, ascending. Arrange the labels as the request states and list them.
c, b, a
(c: 0.07 nM, b: 0.22 nM, a: 0.42 nM)

====

System: HCT116 MTAP null cells
Procedure summary: HCT116 proliferation assay, MTAP null cells (CellTiter-Glo, 6 days)
Format: cell-based
Cond: HCT116-MTAP null, 144 h, read-out: Protif_ HCT116-MTAP null IC50
Parameter: IC50 (nM)

compound="Cc1cc2cc(C(=O)N(Cc3ccc(N)nc3)Cc3ccc(C(F)(F)F)cn3)ccc2nc1N [Example 568]" measured_target="HCT116 MTAP null cells" parameter=IC50 quantitative_readout=130

I: Nc1nc2ncc(C(=O)N(Cc3ccc(C(F)(F)F)cn3)[C@@H](c3ncccn3)C3CC3)cc2cc1Br [Example 373]
II: Cc1cc2cc(C(=O)N(Cc3ccc(C(F)(F)F)cn3)Cc3cccc4[nH]ncc34)ccc2nc1N [Example 371]
For the pair I and II , which entry has the numerically smaller recorded IC50? Output the label that corresponds to your choice.
II

====

System: HCT116 WT cells
Procedure summary: HCT116 proliferation assay, WT cells (CellTiter-Glo, 6 days)
Type: cell-based
Cond: Homo sapiens, HCT-116, 144 h, read-out: Prolif_HCT116-WT IC50
pIC50: −log10 of the molar value.
# pIC50 listing for each entry below

Examples with their reported pIC50 follow.
compound="C[C@H](c1ncn(C)n1)N(Cc1ccc(C(F)F)cn1)C(=O)c1cnc2nc(N)c(Br)cc2c1 (single isomer, unassigned)" parameter=pIC50 result="< 5.00"
compound="Cc1ccc2c(c1)C(N(Cc1ccc(C(F)(F)F)cn1)C(=O)c1ccc3nc(N)c(C)cc3c1)CC2 (stereo not shown)" parameter=pIC50 result="< 6.00"
compound=Cc1cc2cc(C(=O)N(Cc3ccccn3)Cc3ccc(C(F)(F)F)cn3)ccc2nc1N parameter=pIC50 result="< 5.00"
compound="Cc1cc2cc(C(=O)N(Cc3ccc(C(F)(F)F)cn3)[C@@H]3CCCN(C4CC4)C3=O)ccc2nc1N (single isomer, unassigned)" parameter=pIC50 result="< 5.00"
compound=Cc1cc2cc(C(=O)N(Cc3ccc4[nH]c(=O)oc4c3)Cc3ccc(C(F)(F)F)cn3)ccc2nc1N parameter=pIC50 result="< 6.00"

What value of pIC50 has been recorded for this entry: "Cc1cc2cc(C(=O)N(Cc3ccc(C(F)(F)F)nc3)Cc3ncccc3F)ccc2nc1N"
< 5.00

What value of pIC50 has been recorded for this entry: "C[C@H](c1ncccn1)N(Cc1ccc(C#N)cn1)C(=O)c1ccc2nc(N)c(Cl)cc2c1"
< 5.00
